- System: S. aureus 08143 (MSSA)
- experimental details: Broth microdilution MIC
- Type: cell-based, Staphylococcus aureus
- condition context: Staphylococcus aureus; S. aureus 08143 (MSSA); read-out: MIC
I'd be grateful if you could share measured MIC for these entries.
Answers are plain numbers, in µg/mL.

CC(C)=CCC1=C(O)C(O)(CC=C(C)C)C(=O)C(C(=O)C(C)C)=C1O (stereo in doubt) [Cohumulone, cohumulone]	313
COc1cc(O)c(CC=C(C)C)c(O)c1C(=O)/C=C/c1ccc(O)cc1 [XN, xanthohumol]	19.5
CC(C)=CCc1c(O)cc(O)c(C(=O)/C=C/c2ccc(O)cc2)c1O [DMX, desmethylxanthohumol]	39

Now for another entry.
// field: MIC; key: CC(C)=CCC1=C(O)C(CC=C(C)C)(CC=C(C)C)C(=O)C(C(=O)C(C)C)=C1O [Colupulone, colupulone] ; value = 78

====

- Tested on: S. aureus T28.1 (MRSA)
- experimental details: Broth microdilution MIC
- Assay type: cell-based, Staphylococcus aureus
- condition context: Staphylococcus aureus; S. aureus T28.1 (MRSA); read-out: MIC
I'd be grateful if you could share measured MIC for these entries.
Give bare numbers, in µg/mL.

Example results:
COc1cc(O)c(CC=C(C)C)c(O)c1C(=O)/C=C/c1ccc(O)cc1 [XN, xanthohumol]	9.8
CC(C)=CCC1=C(O)C(O)(CC=C(C)C)C(=O)C(C(=O)C(C)C)=C1O (stereo in doubt) [Cohumulone, cohumulone]	156
CC(C)=CCC1=C(O)C(CC=C(C)C)(CC=C(C)C)C(=O)C(C(=O)C(C)C)=C1O [Colupulone, colupulone]	39

Now for another entry.
// field: MIC; key: CC(C)=CCc1c(O)cc(O)c(C(=O)/C=C/c2ccc(O)cc2)c1O [DMX, desmethylxanthohumol] ; value = 39

====

- Test system: S. aureus T26A4 (MSSA)
- experimental details: Broth microdilution MIC
- Assay type: cell-based, Staphylococcus aureus
- condition context: Staphylococcus aureus; S. aureus T26A4 (MSSA); read-out: MIC
I'd be grateful if you could share measured MIC for these entries.

Example results:
CC(C)=CCC1=C(O)C(O)(CC=C(C)C)C(=O)C(C(=O)C(C)C)=C1O (stereo in doubt)	313 µg/mL
CC(C)=CCC1=C(O)C(CC=C(C)C)(CC=C(C)C)C(=O)C(C(=O)C(C)C)=C1O	39 µg/mL

Provide MIC values for the following items, in order.
1. CC(C)=CCc1c(O)cc(O)c(C(=O)/C=C/c2ccc(O)cc2)c1O
2. COc1cc(O)c(CC=C(C)C)c(O)c1C(=O)/C=C/c1ccc(O)cc1

Result:
["39 µg/mL", "9.8 µg/mL"]

====

- Tested on: S. aureus 08143 (MSSA)
- experimental details: Broth microdilution MIC
- Format: cell-based, Staphylococcus aureus
- condition context: Staphylococcus aureus; S. aureus 08143 (MSSA); value in parentheses; read-out: MIC
I'd be grateful if you could share measured MIC for these entries.
Answers are plain numbers, in µM.

CC(C)=CCc1c(O)cc(O)c(C(=O)/C=C/c2ccc(O)cc2)c1O	115

Provide MIC values for the following items, in order.
1. COc1cc(O)c(CC=C(C)C)c(O)c1C(=O)/C=C/c1ccc(O)cc1
2. CC(C)=CCC1=C(O)C(CC=C(C)C)(CC=C(C)C)C(=O)C(C(=O)C(C)C)=C1O
3. CC(C)=CCC1=C(O)C(O)(CC=C(C)C)C(=O)C(C(=O)C(C)C)=C1O (stereo in doubt)

Result:
1: 55; 2: 195; 3: 899
